Test: Cellular Toxicity (caspase-3) MRC-5 (AID 659);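 note: cells exposed to compound for 16 h at 37 °C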;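 for caspase-3 activation: 0% = DMSO basal and 100% = 10 µM staurosporine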
Conditions: MRC-5 cells, luminescence; caspase-3 activation; series mostly up to 91.7 µM
The source made the active and inactive calls. Calls come from the whole dose curve; as a rule, active = well fitted curve in the direction sought with a large enough effect; inconclusive = small, poorly fitted or top-dose-only effect, or another doubt; inactive = no such curve, though single readings can be large or run the other way.
Classes used: 1 = active, -1 = inactive

{"sample_smiles": "NNC(=O)c1ccncc1", "assigned_category": -1}
{"sample_smiles": "C[C@]12C=CC(=O)C=C1CC[C@@H]1[C@@H]2C(=O)C[C@@]2(C)[C@H]1CC[C@]2(O)C(=O)CO", "assigned_category": -1}
{"sample_smiles": "O=C(N[C@H](CO)[C@H](O)c1ccc([N+](=O)[O-])cc1)C(Cl)Cl", "assigned_category": -1}
{"sample_smiles": "CN(C)c1ccc(C(=C2C=CC(=[N+](C)C)C=C2)c2ccc(N(C)C)cc2)cc1", "assigned_category": 1}
{"sample_smiles": "Cc1cc(NS(=O)(=O)c2ccc(N)cc2)no1", "assigned_category": -1}
{"sample_smiles": "N=C(N)c1ccc(OCCCCCOc2ccc(C(=N)N)cc2)cc1", "assigned_category": -1}
{"sample_smiles": "CC(=O)[C@H]1CC[C@H]2[C@@H]3CCC4=CC(=O)CC[C@]4(C)[C@H]3CC[C@]12C", "assigned_category": -1}

====

Assay: qHTS Assay for Identifying Gametocytocidal Compounds (AID 743244);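 note: % is set by controls: 0 for no effect and ±100 for the full control effect; actives lower the fluorescent signal which means gametocytes are killed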
Details: P. falciparum 3D7 stage III-V gametocytes, alamarBlue, 72 h; stronger effect = lower value
Results filed as inconclusive are left out.

{"molecule": "Cc1cc(NS(=O)(=O)c2ccc(N)cc2)no1", "max response (%)": -4.78}
{"molecule": "Cc1nnc(NS(=O)(=O)c2ccc(N)cc2)s1", "max response (%)": -4.6}
{"molecule": "Cn1nnc2c(C(N)=O)ncn2c1=O", "max response (%)": -7.58}
{"molecule": "O=S(=O)(c1cccc2cnccc12)N1CCCNCC1", "max response (%)": -7.26}
{"molecule": "Cc1cccc(N(C)C(=S)Oc2ccc3ccccc3c2)c1", "max response (%)": 6.54}
{"molecule": "CC[C@H](C)C(=O)O[C@H]1C[C@@H](C)C=C2C=C[C@H](C)[C@H](CC[C@@H]3C[C@@H](O)CC(=O)O3)[C@H]21", "max response (%)": 4.74}
{"molecule": "O=C(O)CSCC(=O)NC1CCSC1=O (configuration not stated)", "max response (%)": -6.62}

====

System: UISO
Assay: qHTS assay to identify novel small-molecules to repurpose for Merkel cell carcinoma treatment (AID 1296009); note: nearly all actives have a fitted effect of over 60% in size
Conditions: MCC and control cell lines, CellTiter-Glo viability, 72 h; series mostly up to 46 µM
Results filed as inconclusive are left out. Activity calls are given as the source filed them. Calls follow the shape of the dose curve; as a rule, active = well fitted inhibition curve with a large enough effect; inconclusive = small, poorly fitted or top-dose-only effect; inactive = flat fitted curve, though single readings scatter.
Classes used: T (active), F (inactive)

{"compound": "COCCCOc1cc(C[C@@H](C[C@H](N)[C@@H](O)C[C@H](C(=O)NCC(C)(C)C(N)=O)C(C)C)C(C)C)ccc1OC", "assigned_category": "F"}
{"compound": "Nc1nc(N)nc(-c2cc(Cl)ccc2Cl)n1", "assigned_category": "F"}
{"compound": "CNS(=O)(=O)CCc1ccc2[nH]cc(C3CCN(C)CC3)c2c1", "assigned_category": "F"}
{"compound": "CC(N)C12CC3CC(CC(C3)C1)C2 (stereo not drawn)", "assigned_category": "F"}
{"compound": "CCOC(=O)c1ccc(OC(=O)CCCCCN=C(N)N)cc1", "assigned_category": "F"}
{"compound": "CCCN[C@H]1CCc2nc(N)sc2C1", "assigned_category": "F"}
{"compound": "CCN[C@H]1C[C@H](C)S(=O)(=O)c2sc(S(N)(=O)=O)cc21", "assigned_category": "F"}
{"compound": "Cc1nnc(C(=O)NC(C)(C)c2nc(C(=O)NCc3ccc(F)cc3)c(O)c(=O)n2C)o1", "assigned_category": "F"}
{"compound": "CCN(C)C(=O)Oc1cccc([C@H](C)N(C)C)c1", "assigned_category": "F"}
{"compound": "Nc1nc(=S)c2[nH]cnc2[nH]1", "assigned_category": "T"}
{"compound": "O[C@@H](CNC[C@H](O)[C@H]1CCc2cc(F)ccc2O1)[C@@H]1CCc2cc(F)ccc2O1", "assigned_category": "T"}
{"compound": "O=C(O)CCn1c2c(c3ccccc31)C[C@H](NS(=O)(=O)c1ccc(F)cc1)CC2", "assigned_category": "F"}
{"compound": "NNC(=O)c1ccncc1", "assigned_category": "F"}
{"compound": "C[C@@H](CN1CC(=O)NC(=O)C1)N1CC(=O)NC(=O)C1", "assigned_category": "F"}
{"compound": "CC(C)(C#N)c1cc(Cn2cncn2)cc(C(C)(C)C#N)c1", "assigned_category": "F"}
{"compound": "CN(C)CCc1c[nH]c2ccc(C[C@H]3COC(=O)N3)cc12", "assigned_category": "F"}
{"compound": "CN1CCN(c2c(F)cc3c(=O)c(C(=O)O)cn4c3c2OCN4C)CC1", "assigned_category": "F"}
{"compound": "CNNCc1ccc(C(=O)NC(C)C)cc1", "assigned_category": "F"}
{"compound": "O=C(N[C@H](CO)[C@H](O)c1ccc([N+](=O)[O-])cc1)C(Cl)Cl", "assigned_category": "F"}
{"compound": "COc1cc(NS(=O)(=O)c2ccc(N)cc2)nc(OC)n1", "assigned_category": "F"}
{"compound": "CCC(=O)O[C@]1(C(=O)SCF)[C@H](C)C[C@H]2[C@@H]3C[C@H](F)C4=CC(=O)C=C[C@]4(C)[C@@]3(F)[C@@H](O)C[C@@]21C", "assigned_category": "F"}
{"compound": "CNC1CCCN(c2c(F)cc3c(=O)c(C(=O)O)cn(C4CC4)c3c2OC)C1 (stereo not drawn)", "assigned_category": "F"}
{"compound": "Nc1ccc(S(=O)(=O)Nc2ccccn2)cc1", "assigned_category": "F"}

====

Experiment: qHTS drug screen for cell cycle checkpoint inhibitors in PARPi-resistant BRCA-mutant ovarian cancer cell lines. (AID 1963452)
Settings: PEO1/OlaR viability, CellTiter-Glo luminescence, 96 h; measured here: PEO4 Z-AUC; stronger effect = lower value
readout_type: Z-AUC

{"compound": "COC(=O)Nc1nc2ccc(Sc3ccccc3)cc2[nH]1", "experimental_result": -0.94}
{"compound": "COc1cc2c(Nc3ccc(Br)cc3F)ncnc2cc1OCC1CCN(C)CC1", "experimental_result": -0.0991}
{"compound": "CCCc1nc(C)c2c(=O)[nH]c(-c3cc(S(=O)(=O)N4CCN(CC)CC4)ccc3OCC)nn12", "experimental_result": 0.621}
{"compound": "CCC(=O)O[C@]1(C(=O)SCF)[C@H](C)C[C@H]2[C@@H]3C[C@H](F)C4=CC(=O)C=C[C@]4(C)[C@@]3(F)[C@@H](O)C[C@@]21C", "experimental_result": -0.807}
{"compound": "Nc1nc(N)c2nc(CNc3ccc(C(=O)NC(CCC(=O)O)C(=O)O)cc3)cnc2n1 (stereo not given)", "experimental_result": 1.1}
{"compound": "COc1ccc2cc3[n+](cc2c1OC)CCc1cc2c(cc1-3)OCO2", "experimental_result": 0.437}
{"compound": "O=C(O)CCn1c2c(c3ccccc31)C[C@H](NS(=O)(=O)c1ccc(F)cc1)CC2", "experimental_result": 0.558}
{"compound": "Clc1ccccc1CN1CCc2sccc2C1", "experimental_result": 0.329}
{"compound": "COC(=O)Nc1nc2ccc(C(=O)c3ccccc3)cc2[nH]1", "experimental_result": -1.61}
{"compound": "O=C(O)c1cccnc1", "experimental_result": -0.146}
{"compound": "CCn1cc(C(=O)O)c(=O)c2cc(F)c(N3CCNCC3)cc21", "experimental_result": 0.192}
{"compound": "COc1c(N2CCNC(C)C2)c(F)cc2c(=O)c(C(=O)O)cn(C3CC3)c12 (stereo not given)", "experimental_result": 0.282}
{"compound": "CC(=O)CC(c1ccccc1)c1c(O)c2ccccc2oc1=O (stereo not given)", "experimental_result": 1.67}
{"compound": "Nc1nc(=S)c2[nH]cnc2[nH]1", "experimental_result": -1.01}
{"compound": "C1CCC(C(CC2CCCCN2)C2CCCCC2)CC1 (stereo not given)", "experimental_result": -0.0366}
{"compound": "CO[C@@H]1[C@@H](OC(N)=O)[C@@H](O)[C@H](Oc2ccc3c(O)c(NC(=O)c4ccc(O)c(CC=C(C)C)c4)c(=O)oc3c2C)OC1(C)C", "experimental_result": 0.63}
{"compound": "CCN[C@H]1C[C@H](C)S(=O)(=O)c2sc(S(N)(=O)=O)cc21", "experimental_result": 0.622}
{"compound": "Cc1nnc(C(=O)NC(C)(C)c2nc(C(=O)NCc3ccc(F)cc3)c(O)c(=O)n2C)o1", "experimental_result": -0.396}
{"compound": "COc1ccc(C(=O)CC(=O)c2ccc(C(C)(C)C)cc2)cc1", "experimental_result": 1.06}
{"compound": "CCCCc1oc2ccc(NS(C)(=O)=O)cc2c1C(=O)c1ccc(OCCCN(CCCC)CCCC)cc1", "experimental_result": -0.237}
{"compound": "NC(N)=NC(N)=NCCc1ccccc1", "experimental_result": 0.483}
{"compound": "C[C@]12C=CC(=O)C=C1CC[C@@H]1[C@@H]2C(=O)C[C@@]2(C)[C@H]1CC[C@]2(O)C(=O)CO", "experimental_result": -0.828}
{"compound": "CN(C)c1ccc(C(=C2C=CC(=[N+](C)C)C=C2)c2ccc(N(C)C)cc2)cc1", "experimental_result": -1.8}
{"compound": "NC(=O)c1ccc2[nH]ccc2c1", "experimental_result": -0.798}
{"compound": "O=C(O)c1cc(=O)[nH]c(=O)[nH]1", "experimental_result": -0.128}
{"compound": "CO[C@@]12[C@H](COC(N)=O)C3=C(C(=O)C(C)=C(N)C3=O)N1C[C@@H]1N[C@@H]12", "experimental_result": 1.04}
{"compound": "CC(N)C12CC3CC(CC(C3)C1)C2 (stereo not given)", "experimental_result": 0.722}
{"compound": "CC(C)(Sc1cc(C(C)(C)C)c(O)c(C(C)(C)C)c1)Sc1cc(C(C)(C)C)c(O)c(C(C)(C)C)c1", "experimental_result": 1.09}
{"compound": "CCCCOc1ccc(CC(=O)NO)cc1", "experimental_result": -0.748}
{"compound": "O=C(O)CSCC(=O)NC1CCSC1=O (stereo not given)", "experimental_result": 0.13}
{"compound": "CCc1cc(C(N)=S)ccn1", "experimental_result": -0.17}
{"compound": "O=C(O)C1CCCN(CCC=C(c2ccccc2)c2ccccc2)C1 (stereo not given)", "experimental_result": 1.34}
{"compound": "CCCCCCNC(=O)n1cc(F)c(=O)[nH]c1=O", "experimental_result": 0.733}
{"compound": "O=P(O)(O)C(O)(Cc1cccnc1)P(=O)(O)O", "experimental_result": 0.956}
{"compound": "O=S(=O)(O)CCS", "experimental_result": 1.53}
{"compound": "CCc1c2c(nc3ccc(OC(=O)N4CCC(N5CCCCC5)CC4)cc13)-c1cc3c(c(=O)n1C2)COC(=O)[C@]3(O)CC", "experimental_result": -1.83}
{"compound": "CCCN[C@H]1CCc2nc(N)sc2C1", "experimental_result": -0.574}
{"compound": "O=c1cc(O)c(Cl)c[nH]1", "experimental_result": 1.11}
{"compound": "O=C(O)c1cn(C2CC2)c2cc(N3CCNCC3)c(F)cc2c1=O", "experimental_result": 0.682}
{"compound": "CC(=O)Oc1ccccc1C(=O)Nc1ncc([N+](=O)[O-])s1", "experimental_result": 0.834}
{"compound": "OC(Cn1cncn1)(Cn1cncn1)c1ccc(F)cc1F", "experimental_result": 1.12}
{"compound": "CNNCc1ccc(C(=O)NC(C)C)cc1", "experimental_result": 1.05}
{"compound": "CC[C@H](NC(C)C)[C@H](O)c1ccc(O)c2[nH]c(=O)ccc12", "experimental_result": 0.0233}
{"compound": "C#CCN[C@@H]1CCc2ccccc21", "experimental_result": -0.739}
{"compound": "CCn1cc(C(=O)O)c(=O)c2cc(F)c(N3CCN(C)CC3)cc21", "experimental_result": 1.07}

This collection of values is drawn from PubChem BioAssay (NCATS).
